- assay system: T1, human LAG3 (form used in Octet, Biacore and HDX-MS not given) (human, UniProt P18627 23-450, limits assumed)
- T1 sequence (looked up): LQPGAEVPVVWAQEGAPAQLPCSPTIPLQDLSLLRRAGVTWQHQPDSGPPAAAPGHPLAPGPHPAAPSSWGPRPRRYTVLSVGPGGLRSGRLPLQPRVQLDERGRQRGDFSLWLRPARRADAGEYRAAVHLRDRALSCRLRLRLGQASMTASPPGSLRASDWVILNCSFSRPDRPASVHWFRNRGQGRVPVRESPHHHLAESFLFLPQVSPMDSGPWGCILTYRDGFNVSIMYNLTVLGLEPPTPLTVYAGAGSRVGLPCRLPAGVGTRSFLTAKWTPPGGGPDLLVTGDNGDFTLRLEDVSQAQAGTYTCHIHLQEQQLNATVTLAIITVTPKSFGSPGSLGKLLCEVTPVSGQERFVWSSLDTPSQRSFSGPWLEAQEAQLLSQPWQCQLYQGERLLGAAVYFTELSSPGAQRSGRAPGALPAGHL
- assay summary: BLI (Octet)
measurement type: kon (M⁻¹ s⁻¹)
Number only, in M⁻¹ s⁻¹; omit the unit.

q: Please look at this binder and report its kon: 023c (antibody, human IgG4, V domains shown, human IgG4 S228P / kappa chimeric antibody; also called chimeric antibody 023; ES005-023c; not shown: human kappa light chain constant region (pcDNA3.4-hIgGk vector)) VH: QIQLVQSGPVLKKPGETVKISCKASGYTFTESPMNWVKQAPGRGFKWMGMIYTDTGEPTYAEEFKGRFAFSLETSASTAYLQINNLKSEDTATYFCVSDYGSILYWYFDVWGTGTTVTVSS VL: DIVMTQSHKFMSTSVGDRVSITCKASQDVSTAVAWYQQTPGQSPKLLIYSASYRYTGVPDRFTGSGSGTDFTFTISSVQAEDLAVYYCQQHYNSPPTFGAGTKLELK
a: 352000

q: Please look at this binder and report its kon: hu023.04 (antibody, human IgG4, V domains shown, humanized from 023c) VH: QVQLVQSGAEVKKPGASVKVSCKASGYTFTESPMNWVRQAPGQGFEWMGIIYTDTGEPTYAEEFKGRVTMTRDTSTSTVYMELSSLRSEDTAVYFCASDYGSILYWYFDVWGQGTLVTVSS VL: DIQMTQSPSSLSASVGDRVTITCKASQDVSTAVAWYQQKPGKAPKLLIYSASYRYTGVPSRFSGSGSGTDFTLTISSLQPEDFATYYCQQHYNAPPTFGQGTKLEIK
a: 305000

q: Please look at this binder and report its kon: hu023.10 (antibody, human IgG4, V domains shown, humanized from 023c) VH: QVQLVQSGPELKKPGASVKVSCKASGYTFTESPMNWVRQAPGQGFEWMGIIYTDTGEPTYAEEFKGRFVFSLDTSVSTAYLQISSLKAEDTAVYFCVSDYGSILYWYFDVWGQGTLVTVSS VL: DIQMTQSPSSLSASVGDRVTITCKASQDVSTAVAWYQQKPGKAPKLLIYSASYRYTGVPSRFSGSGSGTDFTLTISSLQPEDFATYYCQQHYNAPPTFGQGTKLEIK
a: 284000

More entries:
q: Please look at this binder and report its kon: hu023.06 (antibody, human IgG4, V domains shown, humanized from 023c) VH: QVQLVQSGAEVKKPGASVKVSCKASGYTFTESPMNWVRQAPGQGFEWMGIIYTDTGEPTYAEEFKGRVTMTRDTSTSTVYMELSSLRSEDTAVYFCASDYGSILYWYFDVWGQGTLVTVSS VL: DIQMTQSPSSLSTSVGDRVTITCKASQDVSTAVAWYQQKPGKSPKLLIYSASYRYTGVPSRFSGSGSGTDFTFTISSVQPEDFATYYCQQHYNAPPTFGQGTKLEIK
a: 246000

q: Please look at this binder and report its kon: hu023.14 (antibody, human IgG4, V domains shown, humanized from 023c) VH: QIQLVQSGPELKKPGASVKISCKASGYTFTESPMNWVRQAPGQGFEWMGIIYTDTGEPTYAEEFKGRFVFSLDTSVSTAYLQISSLKAEDTAVYFCVSDYGSILYWYFDVWGQGTLVTVSS VL: DIQMTQSPSSLSASVGDRVTITCKASQDVSTAVAWYQQKPGKSPKLLIYSASYRYTGVPSRFSGSGSGTDFTFTISSLQPEDFATYYCQQHYNAPPTFGQGTKLEIK
a: 322000

FYI, the data here is from patent US20250313625A1.
